# Target Under Test: CYP-2C19 (Homo sapiens (Human), UniProt P33261)
# Sequence (P33261 whole entry): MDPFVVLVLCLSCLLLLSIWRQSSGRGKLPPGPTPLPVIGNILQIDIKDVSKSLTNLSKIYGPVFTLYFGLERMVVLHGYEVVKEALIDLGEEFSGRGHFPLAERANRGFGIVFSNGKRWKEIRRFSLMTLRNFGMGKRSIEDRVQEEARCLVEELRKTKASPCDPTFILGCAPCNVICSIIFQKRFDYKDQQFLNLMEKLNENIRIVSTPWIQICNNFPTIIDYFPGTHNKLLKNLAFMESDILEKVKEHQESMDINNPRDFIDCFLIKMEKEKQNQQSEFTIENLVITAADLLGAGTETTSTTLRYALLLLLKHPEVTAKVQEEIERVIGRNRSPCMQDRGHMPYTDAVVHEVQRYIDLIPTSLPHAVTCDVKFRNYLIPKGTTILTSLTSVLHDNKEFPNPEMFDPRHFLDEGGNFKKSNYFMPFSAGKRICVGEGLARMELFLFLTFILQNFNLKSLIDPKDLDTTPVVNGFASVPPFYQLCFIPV
# Assay Summary: CYP panel profile: P450 inhibition, CYP-2C19
# Assay type: in vitro ADME
# Measurement Context: human liver microsomes
Each entry below carries its reported log10 IC50.
The figures below represent log10 of IC50, where IC50 is stated in µM.

# count of solved cases: 4
1) O=S(=O)(c1ccc(C(F)(F)F)cc1)n1c(-c2cccc3ccccc23)nc2ccc(Cl)cc21: 0.78
2) O=C(c1cccc2ccccc12)n1c(-c2cccc3ccccc23)nc2cc(Cl)ccc21: 0.66
3) O=C(c1ccccc1)n1c(-c2cccc3ccccc23)nc2cc(Cl)ccc21: 0.72
4) O=C(C1CC1)n1c(-c2cccc3ccccc23)cc2cc(Cl)ccc21: -0.70

Quick one: give measured log10 IC50 for O=C(C1CCCCC1)n1c(-c2cccc3ccccc23)nc2ccc(Cl)cc21
0.38

Quick one: give measured log10 IC50 for O=C(c1ccc(F)cc1)n1c(-c2cccc3ccccc23)nc2cc(Cl)ccc21
0.85

Quick one: give measured log10 IC50 for COc1ccc(C(=O)n2c(-c3cccc4ccccc34)nc3cc(Cl)ccc32)cc1
0.32

====

# Target Under Test: aryl hydrocarbon receptor (AhR) (Mus musculus (Mouse), UniProt P30561)
# Sequence (P30561 10-805): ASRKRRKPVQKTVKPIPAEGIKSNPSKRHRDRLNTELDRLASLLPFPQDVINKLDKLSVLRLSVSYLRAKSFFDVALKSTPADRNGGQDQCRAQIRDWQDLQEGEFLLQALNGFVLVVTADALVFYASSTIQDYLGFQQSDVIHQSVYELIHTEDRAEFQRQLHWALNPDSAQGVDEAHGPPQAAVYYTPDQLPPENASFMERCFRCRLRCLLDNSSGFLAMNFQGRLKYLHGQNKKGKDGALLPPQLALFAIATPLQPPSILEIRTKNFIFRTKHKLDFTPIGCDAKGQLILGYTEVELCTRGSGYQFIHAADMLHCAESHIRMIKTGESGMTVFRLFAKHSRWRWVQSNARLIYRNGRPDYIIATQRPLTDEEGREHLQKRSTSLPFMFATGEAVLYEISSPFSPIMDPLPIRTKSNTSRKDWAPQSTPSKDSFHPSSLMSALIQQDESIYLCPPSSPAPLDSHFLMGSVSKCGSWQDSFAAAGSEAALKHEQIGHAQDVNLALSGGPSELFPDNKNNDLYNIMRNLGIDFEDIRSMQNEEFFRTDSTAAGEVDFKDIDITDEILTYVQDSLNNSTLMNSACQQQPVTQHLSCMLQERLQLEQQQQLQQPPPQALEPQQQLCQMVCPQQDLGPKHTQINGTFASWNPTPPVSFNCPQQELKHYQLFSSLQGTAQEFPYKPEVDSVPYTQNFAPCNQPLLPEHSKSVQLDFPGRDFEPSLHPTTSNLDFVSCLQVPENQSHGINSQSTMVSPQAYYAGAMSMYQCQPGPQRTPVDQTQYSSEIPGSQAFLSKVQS
# Sequence (P53762 whole entry partner): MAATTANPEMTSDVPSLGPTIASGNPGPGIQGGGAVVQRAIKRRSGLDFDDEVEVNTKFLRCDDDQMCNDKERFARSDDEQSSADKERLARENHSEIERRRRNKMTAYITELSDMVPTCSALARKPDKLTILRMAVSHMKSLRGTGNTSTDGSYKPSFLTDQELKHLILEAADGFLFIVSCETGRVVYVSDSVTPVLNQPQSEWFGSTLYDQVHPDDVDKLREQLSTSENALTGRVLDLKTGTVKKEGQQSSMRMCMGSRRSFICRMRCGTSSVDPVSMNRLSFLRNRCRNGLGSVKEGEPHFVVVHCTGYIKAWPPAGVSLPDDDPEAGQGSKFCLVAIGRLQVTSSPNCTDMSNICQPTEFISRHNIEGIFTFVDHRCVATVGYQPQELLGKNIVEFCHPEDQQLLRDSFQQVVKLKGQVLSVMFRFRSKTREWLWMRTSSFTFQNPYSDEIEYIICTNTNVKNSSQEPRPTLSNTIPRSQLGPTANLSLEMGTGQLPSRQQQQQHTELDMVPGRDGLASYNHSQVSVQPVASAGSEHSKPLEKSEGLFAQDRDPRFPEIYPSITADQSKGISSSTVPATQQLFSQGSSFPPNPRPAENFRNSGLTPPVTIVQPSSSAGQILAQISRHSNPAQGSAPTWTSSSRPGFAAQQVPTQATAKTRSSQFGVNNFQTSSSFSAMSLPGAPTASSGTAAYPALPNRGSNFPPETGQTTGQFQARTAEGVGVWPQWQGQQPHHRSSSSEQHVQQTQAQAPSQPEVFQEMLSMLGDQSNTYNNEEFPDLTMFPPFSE
# Assay Summary: AhR ligand screening: AhRE-luciferase reporter in transfected Hepa1 cells
# Format: cell-based
# Measurement Context: fold change of luciferase expression at 10 uM test compound relative to vehicle (0.1% DMSO)
# From the text: The AhR is a ligand-activated transcription factor that dimerizes with ARNT to regulate gene expression, and genes that are regulated by AhR ligands have AhR response elements (AhRE) in their promotor regions. Briefly, Hepa1 cells were transfected with a reporter construct consisting of AhRE linked to luciferase. […] Data were expressed as fold induction of luciferase relative to vehicle (0.1% DMSO) treated cells.
# YES = Fold @ 10 uM below 40 fold (exclusive); NO = Fold @ 10 uM at/above 40 fold

Worked cases, answers included:
1) O=C(c1ccc(F)cc1)n1c(-c2cccc3ccccc23)nc2ccc(Cl)cc21: YES
2) O=C(c1cnc2ccccc2c1)n1c(-c2cccc3ccccc23)nc2ccc(Cl)cc21: NO
3) O=C(c1ccc(F)c(F)c1)n1c(-c2csc3ccccc23)nc2ccc(Cl)cc21: NO
4) O=C(c1ccccc1)n1c(-c2cccc3ccccc23)nc2cc(Cl)ccc21: NO
5) COc1ccc(-c2nc3cc(Cl)ccc3n2C(=O)c2ccccc2)cc1: YES

Please state whether Fold @ 10 uM is below 40 fold for O=C(c1ccc(F)c(F)c1)n1c(-c2ccccc2-c2ccccc2)nc2cc(Cl)ccc21
YES

Please state whether Fold @ 10 uM is below 40 fold for O=C(c1ccc(OC(F)(F)F)cc1)c1c[nH]c2ccc(Cl)cc12
YES

====

# Target Under Test: UniProtKB P05177
# Sequence (P05177 whole entry): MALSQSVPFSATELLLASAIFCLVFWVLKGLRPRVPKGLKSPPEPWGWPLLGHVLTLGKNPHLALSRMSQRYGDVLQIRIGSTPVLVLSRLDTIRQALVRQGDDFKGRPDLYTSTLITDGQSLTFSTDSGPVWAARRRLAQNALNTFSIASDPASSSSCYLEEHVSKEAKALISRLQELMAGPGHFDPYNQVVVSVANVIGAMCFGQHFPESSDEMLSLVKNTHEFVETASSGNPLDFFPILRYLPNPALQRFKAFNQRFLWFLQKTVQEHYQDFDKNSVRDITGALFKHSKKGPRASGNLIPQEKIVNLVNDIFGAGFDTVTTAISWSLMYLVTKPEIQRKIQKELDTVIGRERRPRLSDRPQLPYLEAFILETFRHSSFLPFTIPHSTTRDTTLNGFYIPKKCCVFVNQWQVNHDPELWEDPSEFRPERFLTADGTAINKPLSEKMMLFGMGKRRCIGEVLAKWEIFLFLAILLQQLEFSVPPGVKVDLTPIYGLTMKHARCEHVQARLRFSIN
# Assay Summary: CYP panel profile: P450 inhibition, CYP-1A2
# Type: in vitro ADME
# Measurement Context: human liver microsomes; read-out: CYP-1A2 IC50
pIC50: −log10 of the molar value.
Kind request: treat 6 as inclusive, so pIC50 at 6 or higher is YES, anything lower is NO.

1) O=C(c1ccc(F)c(F)c1)n1c(-c2ccc(-c3ccccc3)cc2)nc2cc(Cl)ccc21: NO
2) O=S(=O)(c1ccc(C(F)(F)F)cc1)n1c(-c2cccc3ccccc23)nc2ccc(Cl)cc21: NO
3) O=C(c1ccc(F)cc1)n1c(-c2cccc3ccccc23)nc2cc(Cl)ccc21: NO

For this molecule, is measured pIC50 6 or higher? COC(=O)c1ccc2c(c1)nc(-c1cccc3ccccc13)n2C(=O)c1ccc(F)c(F)c1
NO

For this molecule, is measured pIC50 6 or higher? COc1ccc(C(=O)n2c(-c3cccc4ccccc34)nc3ccc(Cl)cc32)cc1
YES

For this molecule, is measured pIC50 6 or higher? O=C(c1ccc(F)c(F)c1)n1c(-c2cccc3ccccc23)nc2cc(Cl)ccc21 [Compound 529]
YES

For this molecule, is measured pIC50 6 or higher? Clc1ccc2[nH]c(-c3cccc4ccccc34)cc2c1
YES

====

# Target Under Test: CYP-2C8 (Homo sapiens (Human))
# Sequence (P10632 whole entry): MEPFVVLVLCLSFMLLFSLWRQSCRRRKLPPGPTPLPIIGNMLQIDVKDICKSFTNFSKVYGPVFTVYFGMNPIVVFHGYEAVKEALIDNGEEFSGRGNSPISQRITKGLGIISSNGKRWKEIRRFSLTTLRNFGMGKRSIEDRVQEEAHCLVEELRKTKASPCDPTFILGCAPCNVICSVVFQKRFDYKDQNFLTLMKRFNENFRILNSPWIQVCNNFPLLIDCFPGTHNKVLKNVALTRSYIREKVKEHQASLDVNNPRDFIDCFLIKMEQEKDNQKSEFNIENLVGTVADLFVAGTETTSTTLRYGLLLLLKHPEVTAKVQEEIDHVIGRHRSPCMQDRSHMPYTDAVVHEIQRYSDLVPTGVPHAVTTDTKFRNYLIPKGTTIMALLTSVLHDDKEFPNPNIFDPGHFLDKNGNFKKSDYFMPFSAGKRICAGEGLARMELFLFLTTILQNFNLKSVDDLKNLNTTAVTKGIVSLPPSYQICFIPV
# Assay Summary: CYP panel profile: P450 inhibition, CYP-2C8
# Assay type: in vitro ADME
# Measurement Context: human liver microsomes
pIC50: −log10 of the molar value.
Kind request: treat 5 as inclusive, so pIC50 at 5 or higher is Fulfilled, anything lower is Not fulfilled.

Worked cases, answers included:
1) O=C(c1ccc(F)cc1)n1c(-c2cccc3ccccc23)nc2ccc(Cl)cc21: Fulfilled
2) O=C(C1CCCCC1)n1c(-c2cccc3ccccc23)nc2ccc(Cl)cc21: Fulfilled
3) COC(=O)c1ccc2c(c1)nc(-c1cccc3ccccc13)n2C(=O)c1ccc(F)c(F)c1: Fulfilled
4) O=C(c1ccc(F)c(F)c1)n1c(-c2cccc3ccccc23)cc2cc(Cl)ccc21: Not fulfilled
5) Clc1ccc2c(c1)nc1n2Cc2cccc3cccc-1c23: Not fulfilled
6) O=C(c1ccccc1)n1c(-c2cccc3ccccc23)nc2ccc(Cl)cc21: Fulfilled
7) O=C(c1ccccc1)n1c(-c2cccc3ccccc23)nc2cc(Cl)ccc21: Fulfilled
8) O=S(=O)(c1ccc(C(F)(F)F)cc1)n1c(-c2cccc3ccccc23)nc2ccc(Cl)cc21: Not fulfilled

For this compound, is measured pIC50 5 or higher? COc1ccc(C(=O)n2c(-c3cccc4ccccc34)nc3ccc(Cl)cc32)cc1
Not fulfilled

For this compound, is measured pIC50 5 or higher? O=C(C1CC1)n1c(-c2cccc3ccccc23)cc2cc(Cl)ccc21
Not fulfilled

For this compound, is measured pIC50 5 or higher? O=C(c1cccc2ccccc12)n1c(-c2cccc3ccccc23)nc2cc(Cl)ccc21
Fulfilled

For this compound, is measured pIC50 5 or higher? O=C(c1ccc(F)c(F)c1)n1c(-c2ccc(-c3ccccc3)cc2)nc2ccc(Cl)cc21
Fulfilled

For this compound, is measured pIC50 5 or higher? O=C(c1ccccc1)n1c(-c2cccc3ccccc23)nc2cc(OC(F)(F)F)ccc21
Fulfilled

====

Each entry below carries its reported Fold @ 1 nM.
# Target Under Test: aryl hydrocarbon receptor (AhR) (Mus musculus (Mouse), UniProt P30561)
# Assay Summary: AhR ligand screening: AhRE-luciferase reporter in transfected Hepa1 cells
# Format: cell-based
# Measurement Context: fold change of luciferase expression at 1 nM test compound relative to vehicle (0.1% DMSO)
Your answer is read as fold, so omit the unit and give the number.

// fetch Fold @ 1 nM for O=C(c1cccc2ccccc12)c1c[nH]c2cc(Cl)c(Cl)cc12 ; system: aryl hydrocarbon receptor (AhR) (Mus musculus (Mouse), UniProt P30561)
1

// fetch Fold @ 1 nM for O=C(c1ccc(F)cc1)n1c(-c2cccc3ccccc23)nc2cc(Cl)ccc21 ; system: aryl hydrocarbon receptor (AhR) (Mus musculus (Mouse), UniProt P30561)
7

// fetch Fold @ 1 nM for CN(C)c1ccc(C(=O)n2c(-c3cccc4ccccc34)nc3cc(Cl)ccc32)cc1 ; system: aryl hydrocarbon receptor (AhR) (Mus musculus (Mouse), UniProt P30561)
1

// fetch Fold @ 1 nM for COc1ccc(C(=O)n2c(-c3cc4ccccc4s3)nc3ccc(F)cc32)cc1 ; system: aryl hydrocarbon receptor (AhR) (Mus musculus (Mouse), UniProt P30561)
1

====

Each entry below carries its reported Fold @ 1 nM.
# Target Under Test: aryl hydrocarbon receptor (AhR) (Mus musculus (Mouse), UniProt P30561)
# Assay Summary: AhR ligand screening: AhRE-luciferase reporter in transfected Hepa1 cells
# Assay type: cell-based
# Measurement Context: fold change of luciferase expression at 1 nM test compound relative to vehicle (0.1% DMSO)
Remember to put the unit after the number in your answer.

1. Clc1ccc2c(c1)nc(-c1cccc3ccccc13)n2Cc1ccncc1: 1 fold
2. O=C(c1cccc2ccccc12)n1c(-c2ccccc2)nc2cc(Cl)ccc21: 1 fold
3. O=C(c1ccc(F)c(F)c1)n1c(-c2ccc(F)c3ccccc23)nc2cc(Cl)ccc21: 1 fold
4. O=C(c1c[nH]c2ccc(Cl)cc12)C1CCCCC1: 1 fold
5. N#Cc1ccc(C(=O)c2c[nH]c3ccc(Cl)cc23)cc1: 1 fold
6. Fc1ccc(Cn2c(-c3cccc4ccccc34)nc3ccc(Cl)cc32)cc1F: 1 fold

Quick one: give measured Fold @ 1 nM for O=C(c1ccc(F)c(F)c1)n1c(-c2cccc3ccccc23)nc2cc(Cl)c(Cl)cc21
3 fold

Quick one: give measured Fold @ 1 nM for COC(=O)c1ccc2nc(-c3cccc4ccccc34)n(Cc3ccc(F)c(F)c3)c2c1
1 fold

Quick one: give measured Fold @ 1 nM for COc1ccc(C(=O)n2c(-c3cc4ccccc4s3)nc3ccc(Cl)cc32)cc1
2 fold

====

Each entry below carries its reported Rem @ RLM × 30 min.
# Assay Summary: Liver microsomal stability, rat
# Measurement Context: rat liver microsomes, 30 min, 1 μM compound, 0.5 mg/ml protein
Your answer is read as %, so omit the unit and give the number.

# count of solved cases: 7
1. CCc1ccc(S(=O)(=O)n2c(-c3cccc4ccccc34)nc3ccc(Cl)cc32)cc1: 27.5
2. O=C(C1CC1)n1c(-c2cccc3ccccc23)cc2cc(Cl)ccc21: 20.7
3. O=C(c1ccc(F)c(F)c1)n1c(-c2ccc(-c3ccccc3)cc2)nc2ccc(Cl)cc21: 36.8
4. O=C(C1CC1)n1c(-c2cccc3ccccc23)nc2ccc(Cl)cc21: 45.5
5. O=S(=O)(c1ccc2ccccc2c1)n1c(-c2cccc3ccccc23)nc2ccc(Cl)cc21: 25.6
6. O=C(c1cccc2ccccc12)C1CN(C(=O)c2ccccc2)c2ccc(Cl)cc21 (centres unmarked): 45.5
7. O=c1c2cccc3cccc(c32)c2nc3cc(Cl)ccc3n12: 14.5

Quick one: give measured Rem @ RLM × 30 min for O=C(c1ccc(SC(F)(F)F)cc1)c1c[nH]c2ccc(Cl)cc12
23.1

All values here come from patent US12473262B2.
